Target chain: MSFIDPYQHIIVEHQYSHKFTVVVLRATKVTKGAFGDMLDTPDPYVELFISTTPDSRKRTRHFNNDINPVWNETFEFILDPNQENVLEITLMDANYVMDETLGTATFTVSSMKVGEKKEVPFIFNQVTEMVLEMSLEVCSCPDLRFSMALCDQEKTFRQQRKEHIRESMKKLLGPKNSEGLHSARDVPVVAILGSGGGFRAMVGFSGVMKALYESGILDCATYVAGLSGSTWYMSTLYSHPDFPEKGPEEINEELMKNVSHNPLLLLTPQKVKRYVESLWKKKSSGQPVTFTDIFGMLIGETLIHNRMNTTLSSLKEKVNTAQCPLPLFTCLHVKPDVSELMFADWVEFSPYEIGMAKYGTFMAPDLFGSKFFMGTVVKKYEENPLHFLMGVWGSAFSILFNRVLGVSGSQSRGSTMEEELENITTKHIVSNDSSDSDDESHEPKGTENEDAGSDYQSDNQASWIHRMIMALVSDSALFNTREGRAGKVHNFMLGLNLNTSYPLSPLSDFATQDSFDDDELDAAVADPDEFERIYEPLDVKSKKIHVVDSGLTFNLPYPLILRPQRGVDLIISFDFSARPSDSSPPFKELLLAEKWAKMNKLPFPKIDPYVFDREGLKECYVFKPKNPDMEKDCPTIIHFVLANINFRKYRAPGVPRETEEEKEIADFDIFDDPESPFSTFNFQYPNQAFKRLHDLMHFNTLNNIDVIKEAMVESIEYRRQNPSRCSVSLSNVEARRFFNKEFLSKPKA
pIC50: −log10 of the molar value.
pIC50 below 7 gives FALSE; pIC50 at or above it gives TRUE.

Lookup: Exam item: decide whether the reported pIC50 for CN(Cc1ccccc1)c1ccccc1CO[C@@H]1C[C@@H](CNC(=O)c2ccc(/C=C3\SC(=O)NC3=O)cc2)N(C(=O)c2ccccc2C(=O)c2ccc(F)cc2)C1 is at least 7.
Found: TRUE

Lookup: Exam item: decide whether the reported pIC50 for O=C1NC(=O)/C(=C/c2ccc(/C=C\C[C@@H]3C[C@@H](OCc4ccccc4-c4ccccc4)CN3C(=O)c3ccccc3C(=O)c3ccc(F)cc3)cc2)S1 is at least 7.
Found: FALSE

Lookup: Exam item: decide whether the reported pIC50 for O=C1NC(=S)S/C1=C\c1ccc(COC[C@@H]2C[C@@H](OCc3ccccc3-c3ccccc3)CN2C(=O)c2ccccc2C(=O)c2ccc(F)cc2)cc1 is at least 7.
Found: FALSE

Lookup: Exam item: decide whether the reported pIC50 for CC(C)c1cccc(-c2ccccc2)c1O[C@@H]1C[C@@H](CNC(=O)c2ccc(/C=C3\SC(=O)NC3=O)cc2)N(C(=O)c2ccccc2C(=O)c2ccc(F)cc2)C1 is at least 7.
Found: TRUE

Lookup: Exam item: decide whether the reported pIC50 for O=C1NC(=O)/C(=C/c2ccc(C(=O)NC[C@@H]3C[C@@H](Oc4ccc5c6c4CCCN6CCC5)CN3C(=O)c3ccccc3C(=O)c3ccc(F)cc3)cc2)S1 is at least 7.
Found: TRUE

Lookup: Exam item: decide whether the reported pIC50 for Cc1ccccc1CO[C@@H]1C[C@@H](CNC(=O)c2ccc(/C=C3\SC(=O)NC3=O)cc2)N(C(=O)c2ccccc2C(=O)c2ccc(F)cc2)C1 is at least 7.
Found: FALSE

Lookup: Exam item: decide whether the reported pIC50 for O=C1NC(=O)/C(=C/c2ccc(C(=O)NC[C@@H]3C[C@@H](OCc4ccccc4-c4ccccc4)CN3C(=O)c3ccccc3C(=O)c3ccc(Cl)cc3)cc2)S1 is at least 7.
Found: FALSE

Lookup: Exam item: decide whether the reported pIC50 for CN(Cc1ccccc1-c1ccccc1)[C@@H]1C[C@@H](C(=O)Nc2ccc(/C=C3\SC(=S)NC3=O)cc2)N(C(=O)c2ccccc2C(=O)c2ccc(F)cc2)C1 is at least 7.
Found: TRUE

Lookup: Exam item: decide whether the reported pIC50 for O=C1NC(=O)/C(=C/c2ccc(C(=O)NC[C@@H]3C[C@@H](Oc4cccc(-c5ccc6ccccc6c5)c4)CN3C(=O)c3ccccc3C(=O)c3ccc(F)cc3)cc2)S1 is at least 7.
Found: TRUE

Lookup: Exam item: decide whether the reported pIC50 for O=C1NC(=O)/C(=C/c2ccc(C(=O)NC[C@H]3C[C@@H](OCc4ccccc4-c4ccccc4)CN3C(=O)c3ccccc3C(=O)c3ccc(F)cc3)cc2)S1 is at least 7.
Found: FALSE

Lookup: Exam item: decide whether the reported pIC50 for O=C1NC(=O)/C(=C/c2ccc(C(=O)NC[C@@H]3C[C@@H](OCc4ccccc4-c4ccccc4)CN3C(=O)c3ccccc3C(=O)c3ccc(F)cc3)o2)S1 is at least 7.
Found: FALSE

Lookup: Exam item: decide whether the reported pIC50 for O=C1NC(=S)S/C1=C\c1ccc(/C=C\[C@@H]2C[C@@H](OCc3ccccc3-c3ccccc3)CN2C(=O)c2ccccc2C(=O)c2ccc(F)cc2)s1 is at least 7.
Found: FALSE

Lookup: Exam item: decide whether the reported pIC50 for O=C1NC(=S)S/C1=C\c1ccc(CN(C[C@@H]2C[C@@H](OCc3ccccc3-c3ccccc3)CN2C(=O)c2ccccc2C(=O)c2ccc(F)cc2)C(=O)c2ccccc2)cc1 is at least 7.
Found: FALSE

Lookup: Exam item: decide whether the reported pIC50 for O=C1NC(=O)/C(=C/c2ccc(C(=O)NC[C@@H]3C[C@@H](Oc4cccc(-c5cccc(O)c5)c4)CN3C(=O)c3ccccc3C(=O)c3ccc(F)cc3)cc2)S1 is at least 7.
Found: FALSE

Lookup: Exam item: decide whether the reported pIC50 for O=C1NC(=O)/C(=C/c2ccc(C(=O)NC[C@@H]3C[C@@H](NC(=O)c4ccccc4-c4ccccc4)CN3C(=O)c3ccccc3C(=O)c3ccc(F)cc3)cc2)S1 is at least 7.
Found: FALSE

Lookup: Exam item: decide whether the reported pIC50 for Cc1ccc(C(=O)c2ccccc2C(=O)N2C[C@H](OCc3ccccc3-c3ccccc3)C[C@H]2CNC(=O)c2ccc(/C=C3\SC(=O)NC3=O)cc2)cc1 is at least 7.
Found: FALSE

Ref: patent US6147100A
